# Measurement protocol: Antiproliferative activity in Fem-X of Human melanoma
# Format: functional
Readout label: IC50

Example entries and their recorded answers appear below.
{"columns": ["Compound", "Obs value"],
 "data": [
  ["CC(=O)O[C@H]1C[C@H]2[C@@H]([C@H](OC(C)=O)C[C@@H]3C[C@]4(CC[C@@]32C)OO[C@@]2(CC[C@@]3(C)[C@H](C[C@@H](OC(C)=O)[C@@H]5[C@@H]3C[C@H](OC(C)=O)[C@]3(C)[C@@H](C(C)CCC(N)=O)CC[C@@H]53)C2)OO4)[C@@H]2CC[C@H](C(C)CCC(N)=O)[C@@]12C (some centres not stated)", "3.1 µM"],
  ["CCCNC(=O)CCC(C)[C@H]1CC[C@H]2[C@@H]3[C@H](OC(C)=O)C[C@@H]4C[C@]5(CC[C@]4(C)[C@H]3C[C@H](OC(C)=O)[C@]12C)OO[C@]1(CC[C@@]2(C)[C@H](C[C@@H](OC(C)=O)[C@@H]3[C@@H]2C[C@H](OC(C)=O)[C@]2(C)[C@@H](C(C)CCC(=O)NCCC)CC[C@@H]32)C1)OO5 (some centres not stated)", "94 µM"],
  ["CC(=O)O[C@H]1C[C@H]2[C@@H]([C@H](OC(C)=O)C[C@@H]3C[C@]4(CC[C@@]32C)OO[C@]2(CC[C@@]3(C)[C@H](C[C@@H](OC(C)=O)[C@@H]5[C@@H]3C[C@H](OC(C)=O)[C@]3(C)[C@@H](C(C)CCC(N)=O)CC[C@@H]53)C2)OO4)[C@@H]2CC[C@H](C(C)CCC(N)=O)[C@@]12C (some centres not stated)", "6.2 µM"]
]}

Below are some compounds; for each one, tell me its IC50.
1. CCCNC(=O)CCC(C)[C@H]1CC[C@H]2[C@@H]3[C@H](OC(C)=O)C[C@@H]4C[C@]5(CC[C@]4(C)[C@H]3C[C@H](OC(C)=O)[C@]12C)OO[C@@]1(CC[C@@]2(C)[C@H](C[C@@H](OC(C)=O)[C@@H]3[C@@H]2C[C@H](OC(C)=O)[C@]2(C)[C@@H](C(C)CCC(=O)NCCC)CC[C@@H]32)C1)OO5 (some centres not stated)
2. CC(=O)O[C@H]1C[C@H]2[C@@H]([C@H](OC(C)=O)C[C@@H]3C[C@]4(CC[C@@]32C)OO[C@@]2(CC[C@@]3(C)[C@H](C[C@@H](OC(C)=O)[C@@H]5[C@@H]3C[C@H](OC(C)=O)[C@]3(C)[C@@H](C(C)CCC(=O)O)CC[C@@H]53)C2)OO4)[C@@H]2CC[C@H](C(C)CCC(=O)O)[C@@]12C (some centres not stated)
3. CC(=O)O[C@H]1C[C@H]2[C@@H]([C@H](OC(C)=O)C[C@@H]3C[C@]4(CC[C@@]32C)OO[C@]2(CC[C@@]3(C)[C@H](C[C@@H](OC(C)=O)[C@@H]5[C@@H]3C[C@H](OC(C)=O)[C@]3(C)[C@@H](C(C)CCC(=O)O)CC[C@@H]53)C2)OO4)[C@@H]2CC[C@H](C(C)CCC(=O)O)[C@@]12C (some centres not stated)
4. COC(=O)CCC(C)[C@H]1CC[C@H]2[C@@H]3[C@H](OC(C)=O)C[C@@H]4C[C@]5(CC[C@]4(C)[C@H]3C[C@H](OC(C)=O)[C@]12C)OO[C@]1(CC[C@@]2(C)[C@H](C[C@@H](OC(C)=O)[C@@H]3[C@@H]2C[C@H](OC(C)=O)[C@]2(C)[C@@H](C(C)CCC(=O)OC)CC[C@@H]32)C1)OO5 (some centres not stated)

1: 23 µM; 2: 0.0042 µM; 3: 0.0076 µM; 4: 19.5 µM

* * *

# Measurement protocol: Antiproliferative activity in Fem-X of Human melanoma
# Assay type: functional
pIC50: −log10 of the molar value.
Readout label: pIC50

What the record says about COC(=O)CCC(C)[C@H]1CC[C@H]2[C@@H]3[C@H](OC(C)=O)C[C@@H]4C[C@]5(CC[C@]4(C)[C@H]3C[C@H](OC(C)=O)[C@]12C)OO[C@@]1(CC[C@@]2(C)[C@H](C[C@@H](OC(C)=O)[C@@H]3[C@@H]2C[C@H](OC(C)=O)[C@]2(C)[C@@H](C(C)CCC(=O)OC)CC[C@@H]32)C1)OO5 (stereo partly specified) : pIC50 is < 4.54

* * *

Exercise: state measured pIC50 for each of the compounds provided.
# Tested on: Plasmodium falciparum
# Measurement protocol: Antimalarial activity in Plasmodium falciparum Indochina W2
# Assay type: functional, organism-based
Answers are plain numbers, as −log10 of the molar value.

{"columns": ["Compound", "Obs value"],
 "data": [
  ["CCCNC(=O)CCC(C)[C@H]1CC[C@H]2[C@@H]3[C@H](OC(C)=O)C[C@@H]4C[C@]5(CC[C@]4(C)[C@H]3C[C@H](OC(C)=O)[C@]12C)OO[C@@]1(CC[C@@]2(C)[C@H](C[C@@H](OC(C)=O)[C@@H]3[C@@H]2C[C@H](OC(C)=O)[C@]2(C)[C@@H](C(C)CCC(=O)NCCC)CC[C@@H]32)C1)OO5 (some centres undefined)", 7.22]
]}

We next turn to a different compound, shown below.
What the record says about "C[C@@H]1CC[C@H]2[C@@H](C)C(=O)O[C@@H]3O[C@@]4(C)CC[C@@H]1[C@]32OO4" : pIC50 is 8.14

Hello, the source for this data is ChEMBL document CHEMBL1133629, in case you need it.
